Tested on: SN12C renal
Test: NCI-60 one-dose screen, 48 h
Details: 10 µM unless noted
About 83,000 compounds went through this panel and 20% of them were active in at least one assay; those are over-represented in the sample as a whole. Activity calls are given as the source filed them. The calls were made as follows: active = growth percent below 10; inactive = the rest.
API: response.call in active, inactive

Please review the entries below; each comes with its answer.
compound smiles | category label
COC(=O)c1c2c(c[n+]([O-])c1C)C(=O)C(NCc1ccccc1)=CC2=O | active
CCNC(=O)c1[nH]cc(-c2ccccc2)c1-c1cc(OC)c2c(c1OC)OCO2 | inactive

Exercise: Status in this test for `O=c1oc2ccc([N+](=O)[O-])cc2cc1Br` ?
Key: inactive

Exercise: Hey, what did the test say about `COc1ccc(-c2nc(SCC(C)C)nc(N/N=C\c3ccc(F)cc3)c2C#N)cc1` ?
Key: inactive

Exercise: Recorded test outcome, item `Cc1cc2c(O)c(-c3cccc(Cl)c3)c3sc(=O)oc3c2cc1C`
Key: inactive

Exercise: Please let me know the test result on file for `O=C1/C(=C\c2cn(-c3ccccc3)nc2-c2ccc(-c3cccs3)cc2)CCc2ccccc21` .
Key: inactive

Exercise: Hi, sorry to bother you, what did the test record for `COc1ccc2c(O)c(/C=C3\N=Nc4ccccc43)oc2c1C[C@@H]1CCNC[C@H]1F` ?
Key: inactive

Exercise: For this compound, state the assay outcome: `C=C(C)[C@@H]1CC[C@]2(C(=O)NCCNCCN)CC[C@]3(C)[C@H](CC[C@@H]4[C@@]5(C)C/C(=C/c6ccncc6)C(=O)C(C)(C)[C@@H]5CC[C@]43C)[C@@H]12`
Key: inactive

Exercise: Could you check what this test reported for `O=[N+]([O-])c1ccc(S(=O)(=O)N2CCN(C3=NS(=O)(=O)c4ccccc4N3c3ccccc3)CC2)cc1` ?
Key: inactive
